Molecular target: T1, human UCN1 peptide, biotinylated (human, UniProt P55089 83-122, biotin at N- or C-terminus)
T1 construct: also called hUCN1 (NT Biotin); hUCN1 (CT Biotin)
T1 peptide (looked up): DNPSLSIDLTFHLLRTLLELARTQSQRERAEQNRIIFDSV
Experiment: ELISA, hUCN1 (NT biotin)
quantity-kind: EC50 (read off the curve)

Could you please provide reported EC50 (read off the curve) for PR302309-8 (antibody, human IgG1, kappa, V domains shown) VH: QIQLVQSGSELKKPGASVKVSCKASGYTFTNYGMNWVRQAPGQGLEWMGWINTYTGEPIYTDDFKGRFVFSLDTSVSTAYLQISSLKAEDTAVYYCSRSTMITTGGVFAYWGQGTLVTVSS VL: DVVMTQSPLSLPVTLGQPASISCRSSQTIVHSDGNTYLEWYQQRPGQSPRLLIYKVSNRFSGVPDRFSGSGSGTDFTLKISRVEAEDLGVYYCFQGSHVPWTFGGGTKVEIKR ? Thanks!
~0.1 nM

State its EC50 (read off the curve) for this binder: PR303394 (antibody, human IgG1, kappa, V domains shown, also called analog of CTRND05) VH: EVQLQQSGPELVKPGVSMKISCKASGYSFTDSTMNWVKQSHGKNLEWIGLIHPDNGGTIYNQKFKGKATLTVHKSSSTAYMELLSLTSEDSAVYYCANGFAYWGQGTLVTVSA VL: DVVMTQTPLSLPVSLGDQASISCRSSQSLLHSNGNTYLHWYLQKPGQSPELLIYKVSNRFSGVPDRFSGSGSGTDFTLKISRVEAEDLGVYFCSQSTHVPLTFGAGTKLELKR
~0.02 nM
